Assay: Cytotoxicity against human HL-60 cells by resazurin dye based fluorescence assay
Assay type: cell-based
MEASUREMENT_TYPE: GI50 (µM)
Answer with a number only, understood to be in µM.

For the compound `CC[C@@H](C(=O)[C@@H](C)[C@@H](O)[C@H](C)[C@@H]1O[C@@H]([C@@H](CC)C(=O)ONC(=O)c2ccccc2)CC[C@@H]1C)[C@H]1O[C@]2(C=C[C@H](O)[C@]3(CC[C@@](C)([C@H]4CC[C@](O)(CC)[C@H](C)O4)O3)O2)[C@H](C)C[C@@H]1C` , give its reported GI50. 9.54

Using known records, supply GI50 for `CC[C@@H](C(=O)[C@@H](C)[C@@H](O)[C@H](C)[C@@H]1O[C@@H]([C@@H](CC)C(=O)ONC(=O)c2ccccc2O)CC[C@@H]1C)[C@H]1O[C@]2(C=C[C@H](O)[C@]3(CC[C@@](C)([C@H]4CC[C@](O)(CC)[C@H](C)O4)O3)O2)[C@H](C)C[C@@H]1C` 33.2
